Data origin: patent US12234248B2

# experiment-description: Bioavailability in vivo in rats: lithium in plasma and brain by ICP-OES after oral administration
# applied-conditions: rat, in vivo, po
experimental-readout: AUClast (brain) (µg·h/g)
Give bare numbers, in µg·h/g.

- NC(=O)c1ccncc1.NC(=O)c1ccncc1.O=C([O-])/C=C/C(=O)[O-].[Li+].[Li+] [Compound 2, [Li2(fumarate)(isonicotinamide)2]n]: 178

Continue with the molecule presented below.
Input line: Please give the documented AUClast (brain) of NC(=O)c1ccncc1.NC(=O)c1ccncc1.O=C([O-])CCC(=O)[O-].[Li+].[Li+] [Compound 7, [Li2(succinate) (isonicotinamide)2]n]
Output line: 211740

---

# experiment-description: Bioavailability in vivo in rats: lithium in plasma and brain by ICP-OES after oral administration
# applied-conditions: rat, in vivo, po
I'd be grateful if you could share measured AUC(0-t) for these entries.
Answers are plain numbers, in µg·h/mL.

- NC(=O)c1ccncc1.NC(=O)c1ccncc1.O=C([O-])/C=C/C(=O)[O-].[Li+].[Li+] [Compound 2, [Li2(fumarate)(isonicotinamide)2]n]: 147

Input line: Identify measured AUC(0-t) corresponding to NC(=O)c1ccncc1.NC(=O)c1ccncc1.O=C([O-])CCC(=O)[O-].[Li+].[Li+] [Compound 7, [Li2(succinate) (isonicotinamide)2]n]
Output line: 197
